Provenance of the data: a protein production outcome set (Wang et al. 2014)

Test: label from the status in PepcDB records
measured-property: protein production

Some entries whose results are on file:
ordered-residues	protein production
MDKQTSPQEEIPELAVAVPQDAAALARALDLEAQTVSTWLTQGLGIVARVGSQIVGLAHLVDDGGHADVTDLALTTPDDADVVAALIGGAEQIATELESRVLVVSGLKASPGPAYHYNSGWVRVLPTRVVVPTAEAMHAFGAALAAQLRAGDIVLASGDLGAGKTTLAQGIGRGLGVDGPVISPTFVLARRHVGSEGRPGLVHVDAYRLGSAAELIDLDLDETMDQAVTLIEWGAGIAEDLGGSHLDVDIRRSGDPADETRVVYLEGFGPRWQDVDLSLLSELPLDTISPDQTGDNN	failed
MKTRCGCKKIASYTVVKLILNRLDVAMNSTIRRWFASAGAMRRVFSTFAPYLGAGIKVTHIADDFSSATVEMRQHWYNTNYVGTHFGGSLYSMVDPMYMLLLMRSLGNDYIVWDKSASIDFIRPGKGVVKAHFELTDARLDEIREATADGDKYLPEWYIDIVDEAGTVVSRVHKVLYVRRKPAE	failed
MKVLVFICGEGLGHTSRGIALGRELLAAGHEVYLGAYGYSKEFIERKGYKTVEIPPEIKLVGESGSLNLKRSIISTLKGGNVFGIFKVLSLLKEKKPDIVVSDSYFTGVVASKIRGIPVYLIVNQSNMETFFKNGGIALRTMGGIIKQFYSCIFRRVDRIVIPDFPMPYTVCRLNLAFEEKVSKNLFFSGPLTLKKFDDVKAEVLQKPHVLSLIGGFGYREPIFRKVIEVAKLDKSINYTLLSGPSLNPDVFSNLPENVTIKRFINDQFPYLKASDLVIAPGGHSTIMEALTFGVPVLSFPDINHSEQESNATVVDLAGYGKRLDYSASPEEILRSIKELLKDEKIHQKVEIMKKLSKDLNATATFKELLESNSKRSQKV	failed
MIGVVATLKVQPAKAAEFEKVFLDLAAKVKANEPGCLVYQLTRSKTEEGVYKVLELYASMDALKHHGGTDYFKAAGAAMGPTMAGAPVIEYLDAVE	not failed
MQDDVLAKELADKTSKADIDTDAQTVTRLIADEIDTAKQAAESDITQRSRFIETLRQYAGGGSAMAALITRLGYSKADILHLAELWAQERDPELNFIVGSLYDSGFVEVDDKEARSLQWFRKAAELGQADAQNILGYFYLNGKRGIKRDLQKGGQWYELAAAQGNVDALINLGEIYYSGTQVPLDYARAFEFFERAAKMGKSRALNYLAWMYTNGQFVDTDCRKAAELFAQGRTSFADDPHFQVTCEKDRQARAEAVAMREKNLPKLTFNRDRVFGASQGSGYACELEFVVKTDRVSSIENLRVSLALKNKAGAMSQQVIAFEPFGLNTQNRNLQGYKSDTLRESTLQPIYQPEFCDVDSYSVTAVTGIVNGKEMDILKAGIFL	failed

// moving on: another record for protein production
Record request: protein production value, item `MAEIKHYQFNVVMTCSGCSGAVNKVLTKLEPDVSKIDISLEKQLVDVYTTLPYDFILEKIKKTGKEVRSGKQLAREVILAVHGMTCSACTNTINTQLRALKGVTKCDISLVTNECQVTYDNEVTADSIKEIIEDCGFDCEILRDS` not failed
